- test_system: T1, CD28 endogenously expressed on Jurkat/IL2 reporter cells (human, UniProt P10747 19-220)
- T1 construct: whole, on cells; Target on Jurkat cells; also called Jurkats (CD28)
- protocol_notes: flow cytometry, Jurkat cells (CD28), Fc fusion at 33.3 nM
reported_metric: MFI at 33.3 nM (MFI)
Entry rule: numbers only, all in MFI.

binder	unit_abbreviation	recorded_result
CD80 E35D/N48K/V68M/K89N IgV-Fc (Fc fusion, not shown: small tags and cut ends; a dimerising Fc or GST) VIHVTKEVKEVATLSCGHNVSVEELAQTRIYWQKDKKMVLTMMSGDMKIWPEYKNRTIFDITNNLSIMILALRPSDEGTYECVVLKYENDAFKREHLAEVTLSVKAD	MFI	1530

Here is another binder to look at.
The value of MFI at 33.3 nM measured for the binder CD80 N48K/V68M IgV-Fc (Fc fusion, not shown: small tags and cut ends; a dimerising Fc or GST) VIHVTKEVKEVATLSCGHNVSVEELAQTRIYWQKEKKMVLTMMSGDMKIWPEYKNRTIFDITNNLSIMILALRPSDEGTYECVVLKYEKDAFKREHLAEVTLSVKAD turned out to be 118

Cited source for all entries: patent US20210130436A1
